Data origin: PubChem BioAssay (NCATS)

Can you tell me Potency for the items I'm about to list?
target: Glucocorticoid receptor (Homo sapiens) (UniProt P04150); assay: GR-EFC Redistribution (AID 451); conditions: CHO-K1 GR-EFC translocation, beta-gal luminescence, 2 h; further: potency means the concentration at half of the fitted maximal effect
Sequence (P04150 whole entry, looked up): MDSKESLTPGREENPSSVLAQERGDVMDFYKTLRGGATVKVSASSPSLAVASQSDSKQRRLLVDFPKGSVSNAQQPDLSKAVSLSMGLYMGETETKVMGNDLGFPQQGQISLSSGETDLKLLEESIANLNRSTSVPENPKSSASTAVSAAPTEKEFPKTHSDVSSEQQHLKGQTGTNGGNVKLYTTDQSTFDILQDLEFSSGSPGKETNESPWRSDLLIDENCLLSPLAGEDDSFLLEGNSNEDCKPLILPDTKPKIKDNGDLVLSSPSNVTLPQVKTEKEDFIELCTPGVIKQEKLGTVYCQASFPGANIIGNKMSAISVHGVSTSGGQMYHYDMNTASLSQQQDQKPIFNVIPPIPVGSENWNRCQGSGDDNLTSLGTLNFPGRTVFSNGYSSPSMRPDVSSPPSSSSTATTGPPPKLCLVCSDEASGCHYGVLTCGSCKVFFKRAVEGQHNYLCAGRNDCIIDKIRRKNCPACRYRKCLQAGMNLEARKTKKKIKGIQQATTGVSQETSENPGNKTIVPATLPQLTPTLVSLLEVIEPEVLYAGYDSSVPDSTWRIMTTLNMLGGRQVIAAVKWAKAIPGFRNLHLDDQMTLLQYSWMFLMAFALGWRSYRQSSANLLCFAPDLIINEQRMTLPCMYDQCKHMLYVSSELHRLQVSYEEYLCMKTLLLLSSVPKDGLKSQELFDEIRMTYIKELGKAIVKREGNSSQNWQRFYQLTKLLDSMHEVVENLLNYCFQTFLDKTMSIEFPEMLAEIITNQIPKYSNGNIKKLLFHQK
The source made the active and inactive calls. The call rests on the fitted dose curve.

Record excerpt, results attached:
                                   compound                             system_tested             obs_value
0  Nc1ccc(-c2ccc(Nc3cc(S(=O)(=O)O)c(N)c4c3C(=O)c3ccccc3C4=O)cc2)c(S(=O)(=O)O)c1  Glucocorticoid receptor (Homo sapiens) (UniProt P04150)  > 9.22 µM (inactive)
1  O=c1c(-c2cc(F)cc(F)c2)nc2cnc(N3CCNCC3)nc2n1CCc1ccccc1  Glucocorticoid receptor (Homo sapiens) (UniProt P04150)    > 46 µM (inactive)
2           O=C(O)c1cc(-c2ccncc2)nc2ccccc12  Glucocorticoid receptor (Homo sapiens) (UniProt P04150)  > 9.22 µM (inactive)

Respectfully, I request Potency for each entry included below.
1. CN(C)c1ccc2nc3c(C(=O)O)cc(=O)c(O)c-3oc2c1
2. O=C(NCc1cccs1)O[C@H]1C[C@H]2CC[C@@H]1C2
3. CN1CCN(CCCN)CC1
4. CCN(CC)CCN1C(=O)c2cccc3cc(N)cc(c23)C1=O
5. O=C(O)c1cccc(C(=O)O)c1S(=O)Cc1ccccc1 (stereo not drawn)
6. NCC[C@H]1CCC[C@H](CCN)N1

["> 9.22 µM (inactive)", "> 9.22 µM (inactive)", "> 9.22 µM (inactive)", "> 9.22 µM (inactive)", "> 9.22 µM (inactive)", "> 46 µM (inactive)"]

Hey, quick one: what's Potency for each of these?
1. CN(C)CCCNc1ncnc2nc[nH]c12
2. Cc1onc(-c2c(F)cccc2Cl)c1C(=O)N[C@@H]1C(=O)N2[C@H]1SC(C)(C)[C@H]2C(=O)O
3. O=[N+]([O-])c1ccc(CSc2ncnc3c2ncn3[C@@H]2O[C@@H](CO)[C@@H](O)[C@H]2O)cc1
4. C[C@@H](CN1CCC(Cc2ccccc2)CC1)[C@H](O)c1ccc(O)cc1

["> 9.22 µM (inactive)", "> 9.22 µM (inactive)", "> 46 µM (inactive)", "> 46 µM (inactive)"]

For each of the items listed, what is its Potency?
1. O=C(O)c1ccccc1C(=O)Nc1cc2c(cc1Br)-c1ccccc1C2=O
2. O=C1CC[C@H](NC(=O)c2ccccc2)C(=O)N1
3. C[C@@H](SCc1ccccc1)C(=O)O
4. Nc1nc(Cc2ccccc2)nc(Cc2ccccc2)c1-c1ccccc1

1. > 9.22 µM (inactive)
2. > 9.22 µM (inactive)
3. > 9.22 µM (inactive)
4. > 9.22 µM (inactive)

Items follow; give Potency for each.
1. COc1ccccc1CCn1c(=O)c(-c2ccc(F)cc2)nc2cncnc21
2. CN[C@@H](c1ccncc1)[C@@H](NC)c1ccncc1
3. CC1(C)[C@@H]2CC[C@]1(C)[C@@H](OC(=O)/C=C\c1ccccc1)C2
4. O=C(O)CCCN1CCCCC1

["> 46 µM (inactive)", "> 9.22 µM (inactive)", "> 9.22 µM (inactive)", "> 9.22 µM (inactive)"]

Consider the following items and state reported Potency for each.
1. C[N+](C)(C)CC(=O)N/N=C\c1c(O)ccc2ccccc12
2. O=C(O)[C@@H](S)[C@H](S)C(=O)O

> 9.22 µM (inactive)
> 9.22 µM (inactive)

###

Would you mind telling me the reported activity change, negative = inhibition of each entry?
experiment: AP1 Signaling Pathway (AID 357); conditions: ME-180 (cervical carcinoma) AP-1-bla reporter, EGF-induced, beta-lactamase ratio, 5 h; at 7.69 µM (top of the series) unless noted;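 further: ME-180 reporter cells stimulated with EGF at its EC50 level; on the % scale 0 is the no-effect control and ±100 the full control effect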
Results filed as inconclusive are left out. Calls of active or inactive are those of the source. Calls come from the whole dose curve; as a rule, active = well fitted curve in either direction with a large enough effect (not every such curve was filed as active); inconclusive = small, poorly fitted or top-dose-only effect, or another doubt; inactive = flat fitted curve, though single readings scatter.

# annotated cases, reported activity change, negative = inhibition shown
In [3]: df
Out[3]:
                                   compound                      attribute_measured                    obs_value
0  CC(=O)O[C@H]1CC[C@@]2(C)C(=CC[C@@H]3[C@H]4CC[C@@H]([C@H](C)C(=O)O)[C@]4(C)CC[C@H]32)C1  activity change, negative = inhibition            -2.09% (inactive)
1  CC(=O)[C@@H]1CC[C@@H]2[C@@H]3CC=C4C[C@H](OS(=O)(=O)O)CC[C@@]4(C)[C@H]3CC[C@]21C  activity change, negative = inhibition  12.4% [at 38 µM] (inactive)
2          CC(NC(=O)c1ccccc1)(C(=O)O)C(=O)O  activity change, negative = inhibition             2.23% (inactive)

Give activity change, negative = inhibition for all compounds that follow.
1. CC[C@H](C(=O)c1cccs1)C(O)(C(F)(F)F)C(F)(F)F
2. NC(=O)C[C@@H](N)c1nn[nH]n1
3. O=C=Nc1ccc(Cc2ccc(N=C=O)cc2)cc1 (tested in a mixture with another compound)
4. Cn1c(=O)c(CCc2ccccc2)nc2cnc(N3CCNCC3)nc21
5. O=C1c2ccccc2C(=O)c2c1ccc(N1C(=O)c3ccccc3C1=O)c2-c1c(N2C(=O)c3ccccc3C2=O)ccc2c1C(=O)c1ccccc1C2=O
6. O[C@@H](c1cc([C@@]23C[C@H]4CC[C@@H]2C[C@H](C4)C3)nc2c(Cl)cc(Cl)cc12)[C@@H]1CCCCN1
7. NCCOc1ccccn1
8. NC(N)=N/N=C(\c1ccc(Cl)cc1)C1CC1

["-7.57% (inactive)", "9.01% (inactive)", "-8.4% (inactive)", "-6.16% (inactive)", "-8.78% (inactive)", "1.64% (inactive)", "10% (inactive)", "8.61% (inactive)"]

Below are 6 compounds. Give each one its activity change, negative = inhibition.
1. Cc1ncc(CSC(=N)N)n1Cc1ccccc1
2. O=c1[nH]cc(CS(=O)(=O)Cc2c[nH]c(=O)[nH]c2=O)c(=O)[nH]1
3. C[C@H]1CN(CCO)CCN1c1ccccc1
4. Cn1c(=O)c2[nH]c(SCc3ccccn3)nc2n(C)c1=S
5. N.N.N.N.N.N.N.N.N.N.N.N.N.N.O.O.[Ru].[Ru].[Ru]
6. O=C(O)C/C=C\CC(=O)O

1: 6.64% (inactive); 2: -0.933% (inactive); 3: 11.5% (inactive); 4: -5.29% (inactive); 5: 17.6% [at 38 µM] (inactive); 6: -4.27% (inactive)

Quick one: give me activity change, negative = inhibition for each item below, same order please.
1. O=C(NNS(=O)(=O)c1ccccc1)c1cccnc1
2. O=C(O)[C@H]([C@H]1NCCS1)N1C(=O)c2ccccc2C1=O

1: 16.3% (inactive); 2: 20.1% (inactive)

###

target: Cytochrome P450 1A2 (Homo sapiens); test: p450-cyp1a2 (AID 410); details: recombinant CYP1A2, luciferin-ME demethylation, luminescence; series mostly up to 11.4 µM
Inconclusive results are not listed. Calls of active or inactive are those of the source. The call rests on the fitted dose curve.
Result category, one only: active, inactive

Compound	Cat
N[C@@H](CSC(=O)c1ccccc1)C(=O)O	inactive

Test call, this compound: `Cc1ccccc1/C=C\C1=NCCN1`
active

Could you please tell me the result logged for `c1ccc2c(c1)c1ccccc1n2Cn1c2ccccc2c2ccccc21` in this assay?
active

Any idea what this test logged for `O=[N+]([O-])c1ccc(Nc2nc3ccccc3s2)cc1` ?
inactive

Give the logged outcome of this assay for the following compound: `C=C(NC(=O)C(=C)NC(=O)c1csc(C2=N[C@@H]3c4csc(n4)[C@@H]4NC(=O)c5csc(n5)[C@@H]([C@](C)(O)[C@H](C)O)NC(=O)[C@@H]5CSC(=N5)/C(=C/C)NC(=O)[C@@H]([C@H](C)O)NC(=O)c5csc(n5)[C@]3(CC2)NC(=O)[C@@H](C)NC(=O)C(=C)NC(=O)[C@@H](C)NC(=O)[C@@H]([C@@H](C)CC)N[C@H]2C=Cc3c([C@H](C)O)cc(nc3[C@@H]2O)C(=O)O[C@H]4C)n1)C(N)=O`
inactive

Assay outcome for `Cc1ccc(-c2nc(-c3nccc4ccccc34)oc2-c2ccccc2)cc1` : what was it?
active

Outcome logged for `O=c1ccn([C@@H]2O[C@@H](COP(=O)(O)OP(=O)(O)O)[C@H](O)[C@@H]2O)c(=O)[nH]1` in this assay:
inactive

Please state the recorded outcome for this compound: `CN(CC(=O)O)Cc1oc(CO)cc(=O)c1O`
inactive

Outcome? `O=P(O)(O)O[C@@H]1O[C@H](CO)[C@@H](O)[C@H](O)[C@@H]1O`
inactive

###

experiment: qHTS assay for small molecule agonists of the antioxidant response element (ARE) signaling pathway measured by Nrf2-dependant transcriptional activity (AID 720636); conditions: ARE-luc HepG2, Nrf2 luciferase reporter, 16 h; series mostly up to 92.4 µM;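 on activation: HepG2 cells with an ARE-driven luciferase reporter; % of control where 0% means no effect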
Records with an inconclusive call do not appear. The source made the active and inactive calls. The call rests on the fitted dose curve; in most records, active means well fitted activation curve with a large enough effect in the repeat runs; inconclusive means weak or mixed curves; inactive means flat fitted curve, though single readings scatter.
Form entry, call: pick from 1.0 = active, 0.0 = inactive

Observe how each entry below is paired with its result.
>>> print(df.to_string())
                                   compound  cat
0  CCCCC(CC)COP(=O)(OCC(CC)CCCC)OCC(CC)CCCC (configuration not stated)  0.0
1          CC(C)COC(=O)COc1cc(Cl)c(Cl)cc1Cl  0.0

Now, please, on to the next compound.
Returns: the outcome recorded for `O=[N+]([O-])c1cc(Cl)c(Cl)c(Cl)c1Cl` in this assay.
1.0
